Exercise: for every item that follows, state its recorded ELISA signal.
# Measurement target: T1, human MHC class II DR protein (DRA*0101/DRB1*0401), purified from PRIESS cells (human, UniProt P01903 26-254; P01911 30-266, limits assumed)
# T1 construct: mature; also called HLA-DR protein; MHCII
# T1 MHC II alpha: not shown
# T1 MHC II beta: not shown
# Test summary: ELISA, coated antigen, Fab 100 ng/well, read at 370 nm

Briefly, ELISA signal measured for MS-GPC-8-10-57 Fab (Fab, V domains shown, Fab: VH-CH1 with FLAG tag and STREP tag II, VL-CL; VH residue 1 is Q in Fab; also called 1C7277) VH: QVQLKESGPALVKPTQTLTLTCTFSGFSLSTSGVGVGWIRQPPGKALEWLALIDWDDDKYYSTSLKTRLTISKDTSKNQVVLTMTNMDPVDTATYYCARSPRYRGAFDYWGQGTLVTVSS VL: DIVLTQPPSVSGAPGQRVTISCSGSESNIGNNYVQWYQQLPGTAPKLLIYDNNQRPSGVPDRFSGSKSGTSASLAITGLQSEDEADYYCQSYDLIRHVFGGGTKLTVLG : 1.26

Briefly, ELISA signal measured for MS-GPC-8-6-27 Fab (Fab, V domains shown, Fab: VH-CH1 with FLAG tag and STREP tag II, VL-CL; VH residue 1 is Q in Fab) VH: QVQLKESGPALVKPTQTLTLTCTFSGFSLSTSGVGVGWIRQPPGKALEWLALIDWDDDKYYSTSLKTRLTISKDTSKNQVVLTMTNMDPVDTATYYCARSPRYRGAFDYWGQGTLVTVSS VL: DIVLTQPPSVSGAPGQRVTISCSGSDSNIGANYVTWYQQLPGTAPKLLIYDNNQRPSGVPDRFSGSKSGTSASLAITGLQSEDEADYYCQSYDYDHYVFGGGTKLTVLG : 1.3

Briefly, ELISA signal measured for MS-GPC-8-6-13 Fab (Fab, V domains shown, Fab: VH-CH1 with FLAG tag and STREP tag II, VL-CL; VH residue 1 is Q in Fab; also called 305D3) VH: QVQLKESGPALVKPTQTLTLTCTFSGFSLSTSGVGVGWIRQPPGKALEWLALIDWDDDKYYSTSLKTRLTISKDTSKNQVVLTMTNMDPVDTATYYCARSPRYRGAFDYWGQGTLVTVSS VL: DIVLTQPPSVSGAPGQRVTISCSGSESNIGANYVTWYQQLPGTAPKLLIYDNNQRPSGVPDRFSGSKSGTSASLAITGLQSEDEADYYCQSYDYDHYVFGGGTKLTVLG : 1.47
